Molecular target: T1, Rb^P K462E (human, UniProt P06400 380-788, K462E)
T1 construct: also called variant 8
T1 sequence (looked up): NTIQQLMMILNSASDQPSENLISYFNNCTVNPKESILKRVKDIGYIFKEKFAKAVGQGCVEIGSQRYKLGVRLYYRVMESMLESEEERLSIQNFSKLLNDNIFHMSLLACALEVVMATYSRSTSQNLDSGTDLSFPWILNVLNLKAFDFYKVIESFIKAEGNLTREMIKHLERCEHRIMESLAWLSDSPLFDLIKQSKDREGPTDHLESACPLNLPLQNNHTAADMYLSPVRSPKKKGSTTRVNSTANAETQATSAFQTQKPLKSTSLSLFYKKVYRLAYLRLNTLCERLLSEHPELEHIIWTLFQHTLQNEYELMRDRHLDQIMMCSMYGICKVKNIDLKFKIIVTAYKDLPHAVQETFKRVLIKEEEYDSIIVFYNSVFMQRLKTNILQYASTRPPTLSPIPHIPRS
Experiment: fluorescence polarisation; 37 °C, after the 25 °C reading ramped over 7 min to 37 °C and 2 min incubation; unlabeled Rb^P against 1.5 nM TMR-E2F1^TD or 7.5 nM TMR-E7^LxCxE; 25 mM Tris pH 8.0, 200 mM NaCl, 1 mM DTT, 0.1% Tween-20; apparent Kd
Details: both partners purified
No end group written: not given here. TMR = tetramethyl rhodamine dye
Could you please report measured pKd for the items listed next?
Reminder that pKd means the negative base-10 logarithm of the concentration expressed in mol/L.

Query: Value lookup for pKd; key = DLYCYEQLN (also: TMR label, position not given here, source: synthetic peptide, bought: GenScript) [TMR-E7^LxCxE, LxCxE peptide of the E7 oncoprotein from HPV]
Result: 7.49

Query: Return reported pKd; argument: {TMR}-GEGIRDLFDCDFGDLTPLD (also called E2F^TD; source: synthetic peptide, bought: GenScript) [TMR-E2F1^TD, peptide of the E2F1 transactivation domain]
Result: 7.17
